test: solvent given as SMILES; conditions: in CCCCO
measured-attribute: emission maximum (nm)
Kindly answer with a numeric value in nm, unit omitted.

Would you please look over these solved cases?
compound=CCCCCCCCCCCCCCCCN(CCCCCCCCCCCCCCCC)c1ccc(/C=C/c2cc[n+](Cc3cc(C[n+]4ccc(/C=C/c5ccc(N(CCCCCCCCCCCCCCCC)CCCCCCCCCCCCCCCC)cc5)cc4)cc(C[n+]4ccc(/C=C/c5ccc(N(CCCCCCCCCCCCCCCC)CCCCCCCCCCCCCCCC)cc5)cc4)c3)cc2)cc1 measured=612
compound=CCC[n+]1ccc(/C=C/c2ccc(N(C)C)cc2)cc1 measured=576
compound=Cc1cc(O)c(C(C)C)cc1/N=C/c1ccc(C(F)(F)F)cc1 measured=436

Note to self: emission maximum recorded for CN(C)c1ccc(/C=C/c2cc[n+](Cc3cc(C[n+]4ccc(/C=C/c5ccc(N(C)C)cc5)cc4)cc(C[n+]4ccc(/C=C/c5ccc(N(C)C)cc5)cc4)c3)cc2)cc1 was 608

Item: CN(C)c1ccc(/C=C2\CCCC2=O)cc1 | emission maximum: 479

Please fill in: emission maximum reported for Cc1ccc(C(=O)/C=C2\C(=O)Nc3ccccc32)cc1C = 401

----------
// reported emission maximum for each item listed
experiment: solvent given as SMILES; conditions: in C1CCOC1

sample_smiles=Cn1c(=O)c(/N=N/c2ccc(Nc3ccc([N+](=O)[O-])cc3S(=O)(=O)O)cc2)c(O)c2ccccc21 measured="615 nm"
sample_smiles=N#Cc1ccc(-c2ccc3c(c2)c2cc(-c4ccc(C#N)cc4)ccc2c2c3nc(-c3ccc(-c4ccc(N(c5ccccc5)c5ccccc5)cc4)cc3)n2-c2ccccc2)cc1 measured="468.68 nm"
sample_smiles=Cc1ccc(N(c2ccc(C)cc2)c2ccc3c4cccc5c(N(c6ccc(C)cc6)c6ccc(C)cc6)ccc(c6cccc2c63)c54)cc1 measured="551 nm"
sample_smiles=c1ccc(N(c2ccccc2)c2ccc(-c3ncnc4ccccc34)cc2)cc1 measured="508 nm"
sample_smiles=Cc1cc(C2=C(c3cc(C)sc3C)S(=O)(=O)c3ccccc32)c(C)s1 measured="465 nm"
sample_smiles=CCC1(CC)c2ccccc2-c2c1c1c(c3c2C(CC)(CC)c2cc(/C=C/c4cccs4)ccc2-3)C(CC)(CC)c2cc(/C=C/c3cccs3)ccc2-1 measured="397 nm"

Just so you know, measured emission maximum for CN(C)c1ccc(-c2nc3c(c4c2-c2ccc(C#N)cc2CC4)-c2ccc(C#N)cc2CC3)cc1 came out at 500 nm

Summary for this compound, COc1ccc(/C=C/c2cc(/C=C/c3ccc(OC)cc3)nc(/C=C/c3ccc(N(c4ccccc4)c4ccccc4)cc3)n2)cc1 : emission maximum is 511 nm

C1=C(c2ccc(-c3cccs3)s2)CCC1 has a reported emission maximum of 413 nm

----------
assay: solvent given as SMILES; conditions: in CC(C)O
# yes = emission maximum below 500 nm (exclusive); no = emission maximum at/above 500 nm

Worked examples follow.
sample_smiles=Nc1c(-c2nn([C@H]3C[C@H](O)[C@@H](CO)O3)c3ncnc(N)c23)ccc2ccccc12 category=yes
sample_smiles=Nc1ncnc2c1c(-c1ccc3ccccc3c1)nn2[C@H]1C[C@H](O)[C@@H](CO)O1 category=yes
sample_smiles=Cc1cc(O)c(C(C)C)cc1/N=C/c1ccc(C(F)(F)F)cc1 category=yes

hey, is emission maximum for CC(=O)c1ccc(-c2nc3ccc(N(C)C)c(Br)c3s2)cc1 lower than 500 nm or not?
no

is_below(emission maximum, 500 nm) for CCC[n+]1ccc(/C=C/c2ccc(N(C)C)cc2)cc1 ?
no

Is it true that emission maximum reported for O=C([O-])c1ccccc1-c1c2cc(Br)c(=O)c(Br)c-2oc2c(Br)c([O-])c(Br)cc12 is less than 500 nm?
no

Please determine if COc1cccc(/C=C/c2ccccc2)c1 is below 500 nm in terms of emission maximum.
yes

Lab note: confirm whether the reported emission maximum for this compound is below 500 nm, equality not counting. compound: COc1ccc(/C=N/c2cc(C(C)C)c(O)cc2C)cc1
yes

----------
assay: solvent given as SMILES; settings: in c1ccc2c(c1)c1ccccc1n2-c1ccc(-c2ccc(-n3c4ccccc4c4ccccc43)cc2)cc1
Each record here notes measured emission maximum.
// return numeric value only (unit: nm, not printed)

sample_smiles=CC1(C)c2ccccc2N(c2ccccc2)c2ccc(-c3ccc(-c4ccc5c(c4)C(C)(C)c4ccccc4N5c4ccccc4)c4nsnc34)cc21 readout_unit=nm measured=588
sample_smiles=c1ccc2c(c1)c1ccccc1n2-c1ccc2cc(-c3ccc(-c4ccc(-c5cc6ccc(-n7c8ccccc8c8ccccc87)cc6o5)cc4)cc3)oc2c1 readout_unit=nm measured=441

Continue with the next compound.
Query CC1(C)c2ccccc2N(c2ccc(C(=O)c3cc(C(=O)c4ccc(N5c6ccccc6C(C)(C)c6ccccc65)cc4)cc(C(=O)c4ccc(N5c6ccccc6C(C)(C)c6ccccc65)cc4)c3)cc2)c2ccccc21 yields emission maximum of 521

----------
assay: solvent given as SMILES; details: in ClCCCl
Note to self: values exactly at 500 nm are y. So emission maximum at or above 500 nm is y, below is n.

sample_smiles=CCCCCCOc1ccc(C#Cc2ccc(-c3ccc(-c4ccc(C#Cc5ccc(OCCCCCC)c(OCCCCCC)c5)s4)c4nsnc34)s2)cc1OCCCCCC category=y
sample_smiles=N#Cc1ccc2nc3[nH]c(=O)[nH]c(=O)c3nc2c1 category=n
sample_smiles=CN(C)c1cc(C#N)c(N(C)C)c(C#N)c1 category=y
sample_smiles=c1ccc(-c2cc(-c3ccccc3)[o+]c(-c3ccccc3)c2)cc1 category=n

Test whether the compound C=CCOC(=O)C(C#N)=C1C=C(/C=C/c2ccc(N(C)C)cc2)OC(/C=C/c2ccc(N(C)C)cc2)=C1 records emission maximum of 500 nm or higher.
y

----------
assay: solvent given as SMILES; settings: in CO
Consider the following molecules and their measured emission maximum readings.
Return type: number; implicit unit nm.

The cases that follow already have their emission maximum on record.
sample_smiles=O=C([O-])c1ccccc1-c1c2cc(Br)c(=O)c(Br)c-2oc2c(Br)c([O-])c(Br)cc12 measured_attribute="emission maximum" readout_unit=nm measured=542
sample_smiles=F[B-]1(F)N2C(=Nc3cccc4cccc2c34)c2cccc[n+]21 measured_attribute="emission maximum" readout_unit=nm measured=383
sample_smiles=CCCCCCCCN1c2ccc(C#Cc3ccc(F)cc3)cc2Sc2cc(C=O)ccc21 measured_attribute="emission maximum" readout_unit=nm measured=466
sample_smiles=O=Cc1cc(N2CCCCC2)c2ccc3c(N4CCCCC4)cc(N4CCCCC4)c4ccc1c2c43 measured_attribute="emission maximum" readout_unit=nm measured=643

Now for another entry.
Entry CCCCCCN(CCCCCC)c1ccc(C#Cc2ccc(C(F)(F)F)cc2)cc1 , emission maximum reported as 456

----------
Catalogue of emission maximum values
assay: solvent given as SMILES; conditions: in ClC(Cl)Cl
Lab book: enter the figure in nm, no units written.

Here is how some compounds turned out for emission maximum.
sample_smiles=C=CCOC(=O)C(C#N)=C1C=C(/C=C/c2ccc(N(C)C)cc2)OC(/C=C/c2ccc(N(C)C)cc2)=C1 measured=585
sample_smiles=N#Cc1ccc(Oc2ccc3c4c(cccc24)C(=O)N(CCO)C3=O)cc1 measured=413
sample_smiles=CN(C)c1ccc2nc(-c3ccc(C(=O)O)cc3)sc2c1 measured=509
sample_smiles=CCN(CC)c1ccc(-c2cc3c(s2)c(C(=O)OC)cc(=O)n3C)cc1 measured=545

The record that follows has no emission maximum shown yet.
Looking up CN(C)c1ccc(/C=C/c2cc[n+](CCCCC[n+]3ccc(/C=C/c4ccc(N(C)C)cc4)cc3)cc2)cc1 , I found its emission maximum recorded as 574

----------
emission maximum for assorted compounds
assay: solvent given as SMILES; details: in ClCCl
State the answer as a number, implicitly in nm.

Worked examples, 8 compounds total:
sample_smiles=COC(=O)/C=C/c1ccc2ccc3cccc4ccc1c2c34 measured_attribute="emission maximum" measured=442
sample_smiles=CN(C)c1ccc(/C=C/c2cc[n+](Cc3cc(C[n+]4ccc(/C=C/c5ccc(N(C)C)cc5)cc4)cc(C[n+]4ccc(/C=C/c5ccc(N(C)C)cc5)cc4)c3)cc2)cc1 measured_attribute="emission maximum" measured=600
sample_smiles=c1ccc(Cc2c3ccc(=[N+]4CCCCC4)cc-3oc3cc(N4CCCCC4)ccc23)cc1 measured_attribute="emission maximum" measured=582
sample_smiles=COc1ccc(/C=C/c2cc(/C=C/c3ccc(OC)cc3)nc(/C=C/c3ccc(N(c4ccccc4)c4ccccc4)cc3)n2)cc1 measured_attribute="emission maximum" measured=558
sample_smiles=CCCCCCCCN1c2ccccc2Sc2cc(/C=C/c3ccc(N(c4ccc(/C=C/c5ccc6c(c5)Sc5ccccc5N6CCCCCCCC)cc4)c4ccc(/C=C/c5ccc(/C=C/c6ccc(N(c7ccc(/C=C/c8ccc(N(c9ccccc9)c9ccccc9)cc8)cc7)c7ccc(/C=C/c8ccc(N(c9ccccc9)c9ccccc9)cc8)cc7)cc6)c6nsnc56)cc4)cc3)ccc21 measured_attribute="emission maximum" measured=708
sample_smiles=CC(C)(C)c1cc(C#Cc2ccc3c(C#Cc4cc(C(C)(C)C)cc(C(C)(C)C)c4)cc4c5cc(C#Cc6cc(C(C)(C)C)cc(C(C)(C)C)c6)ccc5c(C#Cc5cc(C(C)(C)C)cc(C(C)(C)C)c5)cc4c3c2)cc(C(C)(C)C)c1 measured_attribute="emission maximum" measured=439
sample_smiles=Cc1cc2c3ccccc3n(C)c2c2c1c1ccccc1n2C measured_attribute="emission maximum" measured=391
sample_smiles=Cn1c(=O)c(/N=N/c2ccc(Nc3ccc([N+](=O)[O-])cc3S(=O)(=O)O)cc2)c(O)c2ccccc21 measured_attribute="emission maximum" measured=617

// c1ccc(C2=C(c3ccccc3)c3cccc4c3c(cc3nc5cc(-c6ccccc6)c(-c6ccccc6)cc5nc34)O2)cc1 : emission maximum value = 559

Quick note, emission maximum for C(=C\c1cc(/C=C/c2ccc(N(c3ccccc3)c3ccccc3)cc2)nc(/C=C/c2ccc(N(c3ccccc3)c3ccccc3)cc2)n1)/c1ccc(N(c2ccccc2)c2ccccc2)cc1 landed at 544
